# SUBJECT_OF_TEST: SCRIB_1, Q14160
# Sequence (Q14160 718-814): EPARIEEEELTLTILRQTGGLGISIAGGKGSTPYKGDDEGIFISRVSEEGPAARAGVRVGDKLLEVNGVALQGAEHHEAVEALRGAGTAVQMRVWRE
# EXPERIMENTAL_DETAILS: holdup assay
# Set-up: key: below the threshold = too weak to quantify, mostly under pKd 3.1 to 4
# PARTICULARS: plain residues with an end cap or a label only (N-terminal biotin on a linker: ttds)

BINDER: NPDALPETLV [ARHGAP6, O43182]
pKd: below the threshold
--
BINDER: PFRSRSPSEV [GPR6, P46095]
pKd: below the threshold
--
BINDER: FVETQHQTQV [FAT3, Q8TDW7]
pKd: below the threshold

Values from paper PMC9482650
